Each recorded value in this set is attributed to ChEMBL document CHEMBL1157539.

The reader will find reported Inhibition values listed item by item below.
System: HepG2
Assay: GSK_TCMDC: Percent inhibition of human HepG2 cell line. Test compounds present at 10uM.
Type: functional
The reply should be a number in %, with the unit left off.

A selection of reference data follows.
CCCCCCN1CCN(Cc2cccc(NC(=O)c3cc4ccccc4o3)c2)CC1.O=C(O)C(F)(F)F    20
COc1ccccc1N(C)CCNc1cc(C)nc(Nc2ccc(C)cc2)n1    9
CCCCCC(C)C(C)c1cc(O)c2c(c1)OC(C)(C)C=C2c1cc[n+]([O-])cc1 (configuration not stated)    11
O=C(O)C(F)(F)F.OCCN1CCN(Cc2cccc(-c3ccc(-c4nc5cc(C(F)(F)F)ccc5[nH]4)cc3)c2)CC1    19
O=C(Nc1ccc(OC2CCN(Cc3ccc(F)cc3)CC2)cc1)c1cccs1.O=C(O)C(F)(F)F    6

Query: Could you tell me which Inhibition is on file for CC(C)NCc1cccc(-c2cccc(NC(=O)c3cccc(Cl)c3)c2)c1.O=C(O)C(F)(F)F ?
Result: 36

---

System: Plasmodium falciparum
Assay: GSK_TCMDC: Inhibition of Plasmodium falciparum 3D7 in whole red blood cells, using parasite LDH activity as an index of growth. Test compounds present at 2uM
Assay type: functional
reported-property: Inhibition (%)
The reply should be a number in %, with the unit left off.

Cc1ccccc1C1CCN(C2CCC(NC(=O)/C=C/c3cccc(C(F)(F)F)c3)CC2)CC1 (configuration not stated)    100
Cn1c(NC2CCN(CC3CCN(C(=O)/C=C/c4ccc(Cl)c(Cl)c4)CC3)CC2)nc2ccccc21    100
Oc1cccc(Nc2nc(NCc3ccccc3)c3ccccc3n2)c1    95
Cc1cc(N2C(N)=NC(N)=NC2(C)C)ccc1Cl.Cl    95
O=C(Nc1cccnc1)c1cc(C(=O)Nc2cccnc2)cc([N+](=O)[O-])c1    100

Query: Could you tell me which Inhibition is on file for Cc1cccc2nc(-c3cccc(-c4cccc(C(=O)NCCN5CCCC5)c4)c3)[nH]c12 ?
Result: 100

Query: Could you tell me which Inhibition is on file for O=C(N[C@@H](Cc1ccccc1)C(=O)NC1CCCCCC1)c1ccc(O)c(-c2cccc(C(F)(F)F)c2)c1 ?
Result: 98

---

Tested on: Plasmodium falciparum
Experiment: GSK_TCMDC: Inhibition of Plasmodium falciparum 3D7 in whole red blood cells, using parasite LDH activity as an index of growth. Test compounds present at 2uM
Assay type: functional
reported-property: Inhibition (%)
The reply should be a number in %, with the unit left off.

CCc1c(CCNCCCCCCNCc2ccc3c(c2CC)OCO3)ccc(OC)c1OC.Cl    100
CC(C)(C)c1ccc(NC(=O)c2cccc(CN3CCCN(Cc4ccc(F)cc4)CC3)c2)cc1.O=C(O)C(F)(F)F    88
NC(=O)c1ccc(NCC(=O)Nc2cccc(-c3cccc(-c4nc5cc(C(F)(F)F)ccc5[nH]4)c3)c2)cc1    99
COc1ccc(C(=O)C2CC2CN(C)CCC(O)c2ccc(Cl)c(Cl)c2)cc1 (stereo unspecified)    94
CCCCNC(=N)c1ccc(OCCCCCOc2ccc(C(=N)NCCCC)cc2)cc1.Cl    99

Query: Could you tell me which Inhibition is on file for Nc1nc(N)c2c(ccc3c2ccn3Cc2ccc3c(c2)OCO3)n1 ?
Result: 100

Query: Could you tell me which Inhibition is on file for COc1ccc(CCN(C)CCCOc2ccc(NC(=O)c3cccc4c(=O)c5ccccc5[nH]c34)cc2)cc1OC ?
Result: 94

---

Test system: Plasmodium falciparum
Experiment: GSK_TCMDC: Inhibition of Plasmodium falciparum 3D7 in whole red blood cells, using parasite LDH activity as an index of growth. Test compounds present at 2uM
Assay type: functional
reported-property: Inhibition (%)
The reply should be a number in %, with the unit left off.

A selection of reference data follows.
COc1cc(C(=O)N2CCN(C(C)C)CC2)ccc1CN(C)CCCN1CCN(c2cccc(Cl)c2Cl)CC1.Cl    100
CCCCCc1cnc2nc(N)nc(N)c2c1.O=S(=O)(O)CCO    82
Cc1cc(C)c2c(c1)C(=NO)CCN2    94
CN(C)C=Nc1ccc(OCCCCCCOc2ccc(N=CN(C)C)cc2)cc1.Cc1ccc(S(=O)(=O)O)cc1    100
COc1ccc(CNC2Cc3ccccc3C2)cc1-c1ccc(S(=O)(=O)NCCN2CCCC2)cc1.O=C(O)C(F)(F)F    100

Query: Could you tell me which Inhibition is on file for Clc1ccc(CNc2nc(NCCc3c[nH]cn3)nc(Nc3ccc4c(c3)OCO4)n2)cc1 ?
Result: 84

Query: Could you tell me which Inhibition is on file for O=C(c1cccc(-c2cccc(-c3nc4cc(C(F)(F)F)ccc4[nH]3)c2)c1)N1CCCCC1CN1CCC(O)C1 (configuration not stated) ?
Result: 91

Query: Could you tell me which Inhibition is on file for Cc1cc(CNCCCCCCCNCc2ccc(-c3ccccc3)cc2)ccc1O ?
Result: 97

Query: Could you tell me which Inhibition is on file for FC(F)(F)c1ccc2[nH]c(-c3cccc(-c4cccc(CNCC5CCCO5)c4)c3)nc2c1.O=C(O)C(F)(F)F (configuration not stated) ?
Result: 100

Query: Could you tell me which Inhibition is on file for CCN(CC)CCN(Cc1ccc(-c2ccc(C(F)(F)F)cc2)cc1)C(=O)Cn1c(SCc2ccc(F)cc2)nc(=O)c2ccccc21.O=C(O)C(O)C(O)C(=O)O ?
Result: 98

Query: Could you tell me which Inhibition is on file for CN(C)CCCNc1ncnc2c1[nH]c1ccc(Br)cc12 ?
Result: 100

Query: Could you tell me which Inhibition is on file for COc1cc(NC2=C(c3ccccc3)C(=O)c3ccccc32)ccn1 ?
Result: 96

---

System: Plasmodium falciparum
Assay: GSK_TCMDC: Inhibition of Plasmodium falciparum Dd2 in whole red blood cells, using parasite LDH activity as an index of growth. Test compounds present at 2uM
Assay type: functional
The reader will find reported Inhibition values listed item by item below.
The reply should be a number in %, with the unit left off.

Query: Could you tell me which Inhibition is on file for CC(=O)Oc1ccc(C(=O)Oc2ccccc2C#CC#N)cc1OC(C)=O ?
Result: 61

Query: Could you tell me which Inhibition is on file for CCN(CCCN1CCCCC1)c1cc(C)nc(Nc2ccc(Cl)c(C(F)(F)F)c2)n1.O=C(O)C(F)(F)F ?
Result: 55

Query: Could you tell me which Inhibition is on file for O=C(Nc1ccccc1Cl)c1cc2ccccc2cc1O ?
Result: 72

Query: Could you tell me which Inhibition is on file for Cl.Fc1ccc2ncc(Cl)c(CCN3CCC(NCc4cc5c(cn4)OCCO5)CC3)c2c1 ?
Result: 20

---

The reader will find reported Inhibition values listed item by item below.
Test system: HepG2
Test: GSK_TCMDC: Percent inhibition of human HepG2 cell line. Test compounds present at 10uM.
Type: functional
The reply should be a number in %, with the unit left off.

A selection of reference data follows.
COc1ccc2nccc([C@@H](O)CN3CCC(NCc4cc5ccc(Cl)cc5[nH]4)CC3)c2c1.O=C(O)C(=O)O    30
COc1ccc2nccc(NC(=O)N3CCC(NCc4cc5ccccc5[nH]4)CC3)c2n1.O=C(O)C(=O)O    27
O=CO.O=S1(=O)NCc2ccc(Nc3nccc(Nc4ccc5c(cnn5Cc5ccccc5)c4)n3)cc21    0

Query: Could you tell me which Inhibition is on file for Nc1ccc(-c2nc3cc(-c4ccc5[nH]c(-c6ccc(N)cc6)nc5c4)ccc3[nH]2)cc1 ?
Result: 45

Query: Could you tell me which Inhibition is on file for CCCCC(CC)NC(=O)[C@H]1CNCCN1C(=O)CCCc1ccccc1.O=C(O)C(F)(F)F (some centres not stated) ?
Result: 5

Query: Could you tell me which Inhibition is on file for O=C(NCCOc1ccccc1)[C@H](Cc1ccccc1)Nc1ccnc(NCC2CCCCC2)n1.O=C(O)C(F)(F)F ?
Result: 80

Query: Could you tell me which Inhibition is on file for Cc1cc(=NN=Cc2cccc(F)c2)c2cccc(C)c2[nH]1 ?
Result: 14

Query: Could you tell me which Inhibition is on file for CN1CCN(c2ccnc3ccc(NC(=O)Nc4ccc(-c5ccncc5)c5ccccc45)cc23)CC1 ?
Result: 76

Query: Could you tell me which Inhibition is on file for Cc1cc(OCCCNC(=N)c2ccc3ccccc3c2)c(C(C)C)cc1Cl.Cc1ccc(S(=O)(=O)O)cc1 ?
Result: 89

Query: Could you tell me which Inhibition is on file for O=C(Nc1ccccc1O)C1CCN(c2ncnc3cc(-c4ccc(F)cc4)sc23)CC1 ?
Result: 10

Query: Could you tell me which Inhibition is on file for N=C(N)Nc1nc(-c2cccc(NC(=O)NCc3ccc(OC(F)(F)F)cc3)c2)cs1 ?
Result: 0

Query: Could you tell me which Inhibition is on file for COCCNCc1ccc(-c2cccc(CNC3CCN(Cc4ccccc4)CC3)c2)cc1.O=C(O)C(F)(F)F ?
Result: 30
